The reported measurements were obtained from paper PMC10092844.

tgt: PPO2 R128Q ΔG210 in Escherichia coli hemG (Amaranthus tuberculatus, UniProt Q0NZW9, DEL210-210/R128Q, cells depend on it)
Type: cell-based
conditions: read-out: IC50 (E. coli hemG growth)
pIC50: −log10 of the molar value.

molecule	pIC50
C#CCN1C(=O)C(F)(F)Oc2cc(F)c(-n3c(=O)n(C)c(=S)n(C)c3=O)cc21 [Trifludimoxazin, trifludimoxazin]	8.01
CCOC(=O)C(C)OC(=O)c1cc(Oc2ccc(C(F)(F)F)cc2Cl)ccc1[N+](=O)[O-] (stereo not drawn) [Lactofen, lactofen]	< 5.00
CC(C)N(C)S(=O)(=O)NC(=O)c1cc(-n2c(=O)cc(C(F)(F)F)n(C)c2=O)c(F)cc1Cl [Saflufenacil, saflufenacil]	< 5.00

---

tgt: PPO2 R128L ΔG210 (Amaranthus tuberculatus, UniProt Q0NZW9, DEL210-210/R128L)
Sequence (Q0NZW9 with tags, fused parts or gaps R128L/DEL210-210): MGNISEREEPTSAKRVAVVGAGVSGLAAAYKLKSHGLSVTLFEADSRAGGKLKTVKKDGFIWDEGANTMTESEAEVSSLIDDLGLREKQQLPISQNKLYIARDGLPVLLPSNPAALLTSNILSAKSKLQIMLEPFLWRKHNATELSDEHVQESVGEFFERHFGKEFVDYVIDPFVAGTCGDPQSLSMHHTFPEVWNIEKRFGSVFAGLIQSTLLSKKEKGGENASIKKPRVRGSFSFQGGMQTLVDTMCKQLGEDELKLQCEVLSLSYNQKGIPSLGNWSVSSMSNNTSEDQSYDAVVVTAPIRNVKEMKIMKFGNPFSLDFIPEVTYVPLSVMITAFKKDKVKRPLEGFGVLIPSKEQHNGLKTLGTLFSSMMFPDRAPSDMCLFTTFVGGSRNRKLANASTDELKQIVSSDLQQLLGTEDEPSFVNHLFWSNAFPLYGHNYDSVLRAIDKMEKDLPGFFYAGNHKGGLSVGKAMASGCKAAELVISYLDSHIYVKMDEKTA
assay.remarks: biochemical
pIC50: −log10 of the molar value.

compound	tgt	qualifier.symbol	pIC50
CCOC(=O)C(C)OC(=O)c1cc(Oc2ccc(C(F)(F)F)cc2Cl)ccc1[N+](=O)[O-] (stereo not shown) [Lactofen, lactofen]	PPO2 R128L ΔG210 (Amaranthus tuberculatus, UniProt Q0NZW9, DEL210-210/R128L)	=	6.19
C#CCN1C(=O)C(F)(F)Oc2cc(F)c(-n3c(=O)n(C)c(=S)n(C)c3=O)cc21 [Trifludimoxazin, trifludimoxazin]	PPO2 R128L ΔG210 (Amaranthus tuberculatus, UniProt Q0NZW9, DEL210-210/R128L)	=	8.25
CS(=O)(=O)NC(=O)c1cc(Oc2ccc(C(F)(F)F)cc2Cl)ccc1[N+](=O)[O-] [Fomesafen, fomesafen]	PPO2 R128L ΔG210 (Amaranthus tuberculatus, UniProt Q0NZW9, DEL210-210/R128L)	<	5.00
CC(C)N(C)S(=O)(=O)NC(=O)c1cc(-n2c(=O)cc(C(F)(F)F)n(C)c2=O)c(F)cc1Cl [Saflufenacil, saflufenacil]	PPO2 R128L ΔG210 (Amaranthus tuberculatus, UniProt Q0NZW9, DEL210-210/R128L)	<	5.00

---

tgt: PPO2 R128N ΔG210 in Escherichia coli hemG (Amaranthus tuberculatus, UniProt Q0NZW9, DEL210-210/R128N, cells depend on it)
conditions: read-out: IC50 (E. coli hemG growth)

compound	IC50
CCOC(=O)C(C)OC(=O)c1cc(Oc2ccc(C(F)(F)F)cc2Cl)ccc1[N+](=O)[O-] (stereo not drawn)	> 10 µM
C#CCN1C(=O)C(F)(F)Oc2cc(F)c(-n3c(=O)n(C)c(=S)n(C)c3=O)cc21	0.00987 µM
CC(C)N(C)S(=O)(=O)NC(=O)c1cc(-n2c(=O)cc(C(F)(F)F)n(C)c2=O)c(F)cc1Cl	> 10 µM
